From: patent US12692255B2

# measurement-target: A2AR (Homo sapiens, UniProt P29274)
# Sequence (P29274 whole entry): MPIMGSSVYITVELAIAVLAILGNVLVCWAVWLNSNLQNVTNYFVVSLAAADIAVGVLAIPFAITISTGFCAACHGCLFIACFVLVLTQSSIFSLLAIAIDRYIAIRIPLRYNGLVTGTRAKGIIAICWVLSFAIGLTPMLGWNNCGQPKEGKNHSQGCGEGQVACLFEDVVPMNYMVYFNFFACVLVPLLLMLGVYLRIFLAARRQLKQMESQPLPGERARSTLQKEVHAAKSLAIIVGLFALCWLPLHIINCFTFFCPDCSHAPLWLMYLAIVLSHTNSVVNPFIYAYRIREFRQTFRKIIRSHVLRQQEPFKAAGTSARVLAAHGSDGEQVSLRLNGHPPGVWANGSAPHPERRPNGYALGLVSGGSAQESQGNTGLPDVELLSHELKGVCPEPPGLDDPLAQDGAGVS
# test-description: cAMP biosensor antagonist potency assay in CHO cells expressing recombinant A2AR
pIC50: −log10 of the molar value.
// pIC50 lookup, one value per entry

| smiles-notation | pIC50 |
| --- | --- |
| N#Cc1c(N)nc(N2CCCCC2)c(C#N)c1-c1cccc(-c2ncccc2F)c1 | > 6.70 |
| COc1nc(N)c(C#N)c(-c2cccc(-c3ccccc3)c2)c1C#N | 6.00 to 6.70 |
| N#Cc1c(N)nc(N2CCOCC2)c(C#N)c1-c1cccc(-c2ccccc2)c1 | 6.00 to 6.70 |
| N#Cc1c(N)nc(N2CCCCC2)c(C#N)c1-c1cc(-c2cccnc2)ccc1F | > 6.70 |
| CCOc1nc(N)c(C#N)c(-c2cccc(-c3ccccc3)c2)c1C#N | > 6.70 |

Request: Output pIC50 of `N#Cc1c(N)nc(N2CCCCC2)c(C#N)c1-c1cccc(-c2cccnc2F)c1`
Response: > 6.70

Request: Output pIC50 of `N#Cc1c(N)nc(N2CCCCC2)c(C#N)c1-c1cccc(-c2cccc(F)n2)c1`
Response: > 6.70

Request: Output pIC50 of `N#Cc1c(N)nc(N2CCCCC2)c(C#N)c1-c1cc(F)cc(-c2cccnc2)c1`
Response: > 6.70

Request: Output pIC50 of `N#Cc1c(N)nc(N2CCCCC2)c(C#N)c1-c1cccc(-c2cccnc2)c1F`
Response: > 6.70

Request: Output pIC50 of `N#Cc1c(N)nc(N2CCCCC2)c(C#N)c1-c1cccc(-c2cncc(F)c2)c1`
Response: 6.00 to 6.70

Request: Output pIC50 of `N#Cc1c(N)nc(N2CCCCC2)c(C#N)c1-c1cccc(-c2cc(F)ccn2)c1`
Response: 6.00 to 6.70
